biological target: α4β7 integrin (Homo sapiens, UniProt P13612+P26010); construct: monitoring the capture of α4β7 integrin expressing cells on a recombinant MadCAM-1 extracellular domain-coated plate; endogenous in cells; host or cells: RPMI8866 cells; experiment: α4β7 Integrin Cell Capture Assay; assay type: cell-based; details: capture of α4β7 integrin expressing RPMI8866 cells on recombinant MadCAM-1 extracellular domain-coated plate; DMEM+0.5% FBS+0.5 mM MnCl2; read-out: EC50 α4β7
Sequence (P13612 34-1032): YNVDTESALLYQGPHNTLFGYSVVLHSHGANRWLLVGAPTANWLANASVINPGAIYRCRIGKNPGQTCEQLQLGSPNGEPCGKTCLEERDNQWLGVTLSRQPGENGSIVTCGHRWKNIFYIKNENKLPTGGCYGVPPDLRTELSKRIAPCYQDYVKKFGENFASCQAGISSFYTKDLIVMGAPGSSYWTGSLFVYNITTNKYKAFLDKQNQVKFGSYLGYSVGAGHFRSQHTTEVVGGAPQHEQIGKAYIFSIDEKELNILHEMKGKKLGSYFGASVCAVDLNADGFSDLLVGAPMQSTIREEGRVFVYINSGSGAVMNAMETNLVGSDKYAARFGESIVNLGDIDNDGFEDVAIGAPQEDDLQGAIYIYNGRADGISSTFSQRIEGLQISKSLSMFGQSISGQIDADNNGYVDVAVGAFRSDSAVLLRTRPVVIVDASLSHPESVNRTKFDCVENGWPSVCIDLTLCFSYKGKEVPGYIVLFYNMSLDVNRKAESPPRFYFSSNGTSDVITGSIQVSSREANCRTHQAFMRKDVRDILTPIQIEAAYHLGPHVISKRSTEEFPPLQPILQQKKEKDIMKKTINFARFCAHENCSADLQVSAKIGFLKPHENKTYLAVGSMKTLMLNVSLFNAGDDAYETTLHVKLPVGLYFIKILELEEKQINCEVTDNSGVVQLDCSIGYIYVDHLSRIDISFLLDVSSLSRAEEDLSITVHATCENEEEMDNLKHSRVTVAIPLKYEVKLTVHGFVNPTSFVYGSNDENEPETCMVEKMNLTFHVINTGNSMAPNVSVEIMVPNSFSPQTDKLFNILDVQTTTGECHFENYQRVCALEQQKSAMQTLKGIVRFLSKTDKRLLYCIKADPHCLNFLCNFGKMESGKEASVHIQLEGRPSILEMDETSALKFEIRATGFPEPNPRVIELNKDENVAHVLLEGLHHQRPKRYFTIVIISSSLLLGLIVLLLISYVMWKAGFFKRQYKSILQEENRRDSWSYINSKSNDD
Sequence (P26010 20-798): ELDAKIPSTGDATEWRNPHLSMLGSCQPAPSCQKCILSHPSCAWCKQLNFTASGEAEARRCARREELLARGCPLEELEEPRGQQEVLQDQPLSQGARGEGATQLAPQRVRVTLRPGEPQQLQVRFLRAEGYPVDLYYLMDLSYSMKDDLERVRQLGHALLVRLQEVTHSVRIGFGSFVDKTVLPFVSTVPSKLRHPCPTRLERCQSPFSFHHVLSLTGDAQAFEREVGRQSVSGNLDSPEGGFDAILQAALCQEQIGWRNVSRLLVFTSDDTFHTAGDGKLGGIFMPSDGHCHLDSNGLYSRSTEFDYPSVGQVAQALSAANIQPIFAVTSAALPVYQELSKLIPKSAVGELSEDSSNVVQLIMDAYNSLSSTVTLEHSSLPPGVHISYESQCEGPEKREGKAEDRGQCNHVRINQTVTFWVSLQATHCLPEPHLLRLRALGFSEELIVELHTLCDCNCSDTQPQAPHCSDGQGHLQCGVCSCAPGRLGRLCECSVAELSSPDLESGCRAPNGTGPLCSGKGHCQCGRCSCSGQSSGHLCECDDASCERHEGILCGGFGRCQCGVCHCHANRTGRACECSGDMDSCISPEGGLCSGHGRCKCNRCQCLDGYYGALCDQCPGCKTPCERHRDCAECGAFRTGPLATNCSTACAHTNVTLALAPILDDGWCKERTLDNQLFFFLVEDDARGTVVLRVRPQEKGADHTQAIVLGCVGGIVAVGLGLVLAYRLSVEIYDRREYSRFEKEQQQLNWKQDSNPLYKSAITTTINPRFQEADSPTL
endpoint.name: EC50 (nM)

Some entries whose results are on file:
Cc1c(-c2ccc(C[C@H](NC(=O)c3c(Cl)cccc3Cl)C(=O)O)c3ncccc23)c(=O)n(C)c2ccccc12 [Example 34]
4
Cc1c(-c2ccc(C[C@H](NC(=O)c3c(F)cc(N4CCOC[C@@H]4C(F)(F)F)cc3F)C(=O)O)c3ccccc23)c(=O)n(C)c(=O)n1C
0.3
Cn1c(=O)c(-c2ccc(C[C@H](NC(=O)c3c(Cl)cccc3Cl)C(=O)O)c3ncccc23)c(C(F)(F)F)c2cc(Br)ccc21 [Example 58]
19.2
Cn1c(=O)c(-c2ccc(C[C@H](NC(=O)c3c(Cl)cccc3Cl)C(=O)O)c3ncccc23)c(C(F)(F)F)c2cc(Br)ccc21 (single isomer, unassigned) [Example 64]
4.4

(1) O=C(N[C@@H](Cc1ccc(-c2nccc(C(F)(F)F)c2Cl)c2cccnc12)C(=O)O)c1c(Cl)cccc1Cl
(2) Cc1c(-c2ccc(C[C@H](NC(=O)c3c(Cl)cccc3Cl)C(=O)O)c3ncccc23)c(=O)n(C)c2cc(Cl)ccc12 [Example 74]
# input Please let me know which one, 1 or 2 , has a lower measured EC50 value. Reply briefly: the label of your chosen item.
# output 1
